Values were extracted from ChEMBL document CHEMBL3108727.

- Experiment Description: Cytotoxicity against human BGC823 cells after 96 hrs by MTT assay
- Type: functional, cell-based
- Condition Set: BGC-823, 96 h
pIC50: −log10 of the molar value.
Entries and their measured pIC50 follow.

Molecule | pIC50
CC(=O)[C@@H]1CC[C@]2(C)CC[C@]3(C)[C@H](CC[C@@H]4[C@@]5(C)CC[C@H](O)C(C)(C)[C@@H]5CC[C@]43C)[C@@H]12 | < 5.00
C=C(CO)[C@@H]1CC[C@]2(CO)CC[C@]3(C)[C@H](CC[C@@H]4[C@@]5(C)CC[C@@H](OC(C)=O)C(C)(C)[C@@H]5CC[C@]43C)[C@@H]12 | 5.39
C=C(C=O)[C@@H]1CC[C@]2(C)CC[C@]3(C)[C@H](CC[C@@H]4[C@@]5(C)CC[C@@H](O)C(C)(C)[C@@H]5CC[C@]43C)[C@@H]12 | < 5.00
C=C(CO)[C@@H]1CC[C@]2(C)CC[C@]3(C)[C@H](CC[C@@H]4[C@@]5(C)CC[C@H](O)C(C)(C)[C@@H]5CC[C@]43C)[C@@H]12 | < 5.00
C[C@@H](O)[C@@H]1CC[C@]2(C)CC[C@]3(C)[C@H](CC[C@@H]4[C@@]5(C)CC[C@@H](O)C(C)(C)[C@@H]5CC[C@]43C)[C@@H]12 | < 5.00
